Reference for the values: patent US20150329642A1

- TARGET_DESC: T1, cMetECDHis (human, UniProt P08581 25-932, limits assumed, biotinylated in the cross-block ELISA of Example 17)
- T1 construct: Expressed in HEK-293F cells; also called soluble cMetECDHis; biotinylated cMetECDHis
- EXPERIMENT_NOTES: cross-block ELISA; competitor 181
METRIC: residual binding, % of no competitor (%)

BINDER	MEASUREMENT
anti-c-Met HuMab 098 (IgG1) (antibody, V domains shown, also called TH1016-098; PC1016-098) VH: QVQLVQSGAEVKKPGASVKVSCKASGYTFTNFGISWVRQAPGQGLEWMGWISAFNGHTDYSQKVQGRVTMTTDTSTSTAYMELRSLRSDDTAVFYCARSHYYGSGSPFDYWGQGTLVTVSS VL: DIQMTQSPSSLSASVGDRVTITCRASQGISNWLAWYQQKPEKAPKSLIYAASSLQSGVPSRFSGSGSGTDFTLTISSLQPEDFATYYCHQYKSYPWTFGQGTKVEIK	12
anti-c-Met HuMab 006 (IgG1) (antibody, V domains shown, also called TH1016-006; PC1016-006) VH: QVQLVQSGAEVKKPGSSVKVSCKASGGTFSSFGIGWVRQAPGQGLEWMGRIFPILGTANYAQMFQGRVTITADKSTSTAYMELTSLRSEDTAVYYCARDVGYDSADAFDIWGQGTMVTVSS VL: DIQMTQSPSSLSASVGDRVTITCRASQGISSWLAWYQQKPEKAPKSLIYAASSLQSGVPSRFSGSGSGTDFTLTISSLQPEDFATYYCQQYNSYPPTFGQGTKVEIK	124
IgG1-1016-058 (antibody, V domains shown, also called IgG1-058; TH1016-058) VH: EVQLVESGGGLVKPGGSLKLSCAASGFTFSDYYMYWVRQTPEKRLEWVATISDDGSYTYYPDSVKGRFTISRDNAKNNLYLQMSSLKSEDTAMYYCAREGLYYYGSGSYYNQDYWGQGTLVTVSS VL: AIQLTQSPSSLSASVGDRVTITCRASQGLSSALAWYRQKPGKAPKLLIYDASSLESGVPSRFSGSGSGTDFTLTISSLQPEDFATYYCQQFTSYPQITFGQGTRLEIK	121
